Tested on: Staphylococcus aureus
Experiment: Antibacterial activity against Staphylococcus aureus ATCC 65389 after 24 hrs by twofold dilution method
Format: functional
Details: ATCC 65389, 24 h
valueKind: MIC

Given CC(=O)O[C@@H]1OC=C2[C@H]1[C@@]1(C)CC[C@H]3[C@@](C)(CC[C@H]4C(C)(C)CCC[C@]34C)[C@@H]1C[C@@H]2O , report its MIC on Staphylococcus aureus. > 100 µg/mL

Given CC(=O)O[C@@H]1OC(=O)C2=CC[C@@H]3[C@](C)(CC[C@H]4[C@@]3(C)CC[C@H]3C(C)(C)CCC[C@@]34CO)[C@H]21 , report its MIC on Staphylococcus aureus. > 100 µg/mL

Given CC(=O)O[C@@H]1OC=C2[C@@H](OC(C)=O)C[C@@H]3[C@](C)(CC[C@H]4[C@@]3(C)CC[C@H]3C(C)(C)CCC[C@@]34CO)[C@H]21 , report its MIC on Staphylococcus aureus. > 100 µg/mL

---
Given CC(=O)OC[C@]12CCCC(C)(C)[C@@H]1CC[C@@]1(C)[C@@H]3CC=C(C(=O)O)[C@@H](C=O)[C@@]3(C)CC[C@@H]12 , report its MIC on Staphylococcus aureus. > 100 µg/mL

* * *

Molecular target: Isocitrate lyase (Magnaporthe oryzae (strain 70-15 / FGSC 8958) (Rice blast fungus)(Pyricularia oryzae))
Sequence (P0CT06 whole entry): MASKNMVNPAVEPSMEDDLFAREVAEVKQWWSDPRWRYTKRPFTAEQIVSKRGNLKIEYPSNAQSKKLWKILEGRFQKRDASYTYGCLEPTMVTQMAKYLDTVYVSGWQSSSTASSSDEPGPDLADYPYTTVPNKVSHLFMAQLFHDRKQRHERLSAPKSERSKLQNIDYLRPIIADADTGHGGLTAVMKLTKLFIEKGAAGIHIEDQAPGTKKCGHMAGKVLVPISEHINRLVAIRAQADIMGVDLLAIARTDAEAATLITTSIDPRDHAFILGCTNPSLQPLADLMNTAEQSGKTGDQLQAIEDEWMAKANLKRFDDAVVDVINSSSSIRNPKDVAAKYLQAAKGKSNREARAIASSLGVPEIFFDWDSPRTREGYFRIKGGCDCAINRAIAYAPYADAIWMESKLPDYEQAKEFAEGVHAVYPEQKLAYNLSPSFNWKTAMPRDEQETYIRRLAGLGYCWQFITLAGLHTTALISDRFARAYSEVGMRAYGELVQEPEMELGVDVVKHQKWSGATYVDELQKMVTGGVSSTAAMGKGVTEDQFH
Test: Inhibition of Magnaporthe grisea isocitrate lyase
pIC50: −log10 of the molar value.
valueKind: pIC50

Quickly give me recorded pIC50 for CC(=O)OC[C@]12CCCC(C)(C)[C@@H]1CC[C@@]1(C)[C@@H]3CC=C(C(=O)O)[C@@H](C=O)[C@@]3(C)CC[C@@H]12 < 3.65

Quickly give me recorded pIC50 for C/C(=C\CC/C(C)=C/C[C@H](O)c1ccoc1)CC/C=C(\C)CC(=O)CC(C)C < 3.59

Quickly give me recorded pIC50 for CC(=O)O[C@@H]1OC=C2[C@H]1[C@@]1(C)CC[C@H]3[C@@](C)(CC[C@H]4C(C)(C)CCC[C@]34C)[C@@H]1C[C@@H]2O < 3.63

Quickly give me recorded pIC50 for CC(=O)OC[C@]12CCCC(C)(C)[C@@H]1CC[C@@]1(C)[C@@H]3C[C@H](OC(C)=O)C4=CO[C@@H](OC(C)=O)[C@@H]4[C@@]3(C)CC[C@@H]12 < 3.72

These measurements were taken from ChEMBL document CHEMBL1154134.
